The reported numbers originate from PubChem BioAssay (EPA / NIEHS).

test: CCTE_Shafer_MEA_acute_synchrony_index: CCTE's Neural Acute Assay for Synchrony, Shafer Lab (AID 2284027);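 also: network synchrony index of spontaneous spiking in primary rat cortical neurons on MEAs; fitted for loss of signal so actives lower synchrony relative to DMSO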
Calls of active or inactive are those of the source. The calls were made as follows: active = hit-call score of the fitted dose curve at least 0.9, where 1 is the maximum; inactive = score below 0.9.

molecule: CN1CCN(c2ccccc2/C=C2\SCCN(c3ccc(Cl)c(Cl)c3)C2=O)CC1
AC50: 34 µM (active)
//
molecule: CCCOc1sc(C(=O)N2CCC(c3cc(CN)ccc3F)CC2)c(C)c1Br
AC50: inactive
//
molecule: OC1CCC(C2CCCCC2)CC1 (stereo unspecified)
AC50: inactive
//
molecule: CN(C)C=O
AC50: inactive
//
molecule: OCCC(F)(F)C(F)(F)C(F)(F)C(F)(F)C(F)(F)C(F)(F)C(F)(F)C(F)(F)F
AC50: inactive
//
molecule: O=c1c(-c2ccc(O)cc2)coc2cc(O)ccc12
AC50: 12.2 µM (active)
//
molecule: CC[C@H](c1ccc(O)cc1)[C@@H](CC)c1ccc(O)cc1
AC50: inactive
//
molecule: CCCCCCCCCCCCN1CCCC1=O
AC50: inactive
//
molecule: O=C(O)c1ccccc1C(c1ccc(O)cc1)c1ccc(O)cc1
AC50: 7.86 µM (active)
//
molecule: CCC(=C(c1ccc(O)cc1)c1ccc(OCCN(C)C)cc1)c1ccccc1
AC50: 20.9 µM (active)
//
molecule: CC(C)CCCCCCOC(=O)CCCCC(=O)OCCCCCCC(C)C
AC50: inactive

---

test: APR_HepG2_MitoMembPot_24hr: Apredica 24-hour HepG2 Assay for Mitochondrial Membrane Potential (AID 2282911); settings: imaging, actives raise or lower the signal
The source made the active and inactive calls. How the source made its calls: active means hit-call score of the fitted dose curve at least 0.9, where 1 is the maximum; inactive means score below 0.9.
Outcomes: TRUE (active), FALSE (inactive)

compound: CC(C)(C)c1ccc(O)c(C(C)(C)C)c1
qualitative-label: TRUE
--
compound: CCCCCCCC(=O)O
qualitative-label: TRUE
--
compound: CN(C)C=O
qualitative-label: FALSE
--
compound: CC(=O)CC(C)(C)O
qualitative-label: FALSE
--
compound: C=C(C)C(=O)OCCC(F)(F)C(F)(F)C(F)(F)C(F)(F)C(F)(F)C(F)(F)F
qualitative-label: FALSE
--
compound: O=C(O)c1ccccc1C(c1ccc(O)cc1)c1ccc(O)cc1
qualitative-label: FALSE
--
compound: CCCCCCCCOC(=O)CCCCCCCCC(=O)OCCCCCCCC
qualitative-label: FALSE
--
compound: Nc1cccc2c(N)cccc12
qualitative-label: FALSE
--
compound: CCc1nn(C2CCCCC2)c2cc(C3(C#N)CCC(C(=O)O)CC3)ccc12 (stereo unspecified)
qualitative-label: FALSE
--
compound: C[C@@H]1C[C@H]2[C@@H]3CCC4=CC(=O)C=C[C@]4(C)[C@@]3(F)[C@@H](O)C[C@]2(C)[C@@]1(O)C(=O)COP(=O)(O)O
qualitative-label: TRUE
--
compound: CC(C)(C)c1cccc(C(C)(C)C)c1O
qualitative-label: TRUE

---

read-out: Hypoxia-inducible factor 1-alpha (Homo sapiens) (UniProt Q16665); assay: LTEA_HepaRG_HIF1A: Life Technologies and Expression Analysis (LTEA) Assay for Hypoxia-inducible factor 1 (HIF1A) Trancription factor using HepaRG (AID 2283503); conditions: mRNA level, 48 h; actives raise or lower the signal;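 also: HIF1A transcript by TaqMan qRT-PCR normalized to ACTB GAPDH and POLR2A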
Sequence (Q16665 whole entry, looked up): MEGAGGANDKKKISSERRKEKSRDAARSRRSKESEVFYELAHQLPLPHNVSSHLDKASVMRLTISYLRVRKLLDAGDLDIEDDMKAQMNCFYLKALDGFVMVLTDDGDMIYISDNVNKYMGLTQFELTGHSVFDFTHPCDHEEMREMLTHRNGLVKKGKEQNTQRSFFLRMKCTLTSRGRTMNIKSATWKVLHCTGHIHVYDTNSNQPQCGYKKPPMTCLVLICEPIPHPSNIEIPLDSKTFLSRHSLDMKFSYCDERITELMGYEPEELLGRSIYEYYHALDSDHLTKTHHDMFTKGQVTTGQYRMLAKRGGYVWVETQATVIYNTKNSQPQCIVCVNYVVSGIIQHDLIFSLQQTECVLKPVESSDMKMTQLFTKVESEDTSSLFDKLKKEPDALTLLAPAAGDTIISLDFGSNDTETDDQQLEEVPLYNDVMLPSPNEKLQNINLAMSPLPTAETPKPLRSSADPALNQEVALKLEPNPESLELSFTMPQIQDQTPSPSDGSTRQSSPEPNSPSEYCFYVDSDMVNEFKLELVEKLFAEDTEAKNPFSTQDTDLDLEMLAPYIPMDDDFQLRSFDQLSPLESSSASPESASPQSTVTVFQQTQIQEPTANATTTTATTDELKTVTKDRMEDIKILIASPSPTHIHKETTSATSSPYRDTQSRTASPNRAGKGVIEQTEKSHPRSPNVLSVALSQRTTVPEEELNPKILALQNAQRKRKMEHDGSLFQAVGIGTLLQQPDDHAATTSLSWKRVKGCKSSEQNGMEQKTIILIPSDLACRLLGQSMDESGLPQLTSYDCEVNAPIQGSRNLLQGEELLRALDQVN
Active and inactive are the calls of the source. Rule for the calls: active = hit-call score of the fitted dose curve at least 0.9, where 1 is the maximum; inactive = score below 0.9.
Outcomes: 1 (yes) (active), 0 (no) (inactive)

molecular-string: ClC1=C(Cl)C(Cl)(Cl)C(Cl)=C1Cl
qualitative-label: 0 (no)
--
molecular-string: CC#C[C@]1(O)CC[C@H]2[C@@H]3CCC4=CC(=O)CCC4=C3[C@@H](c3ccc(N(C)C)cc3)C[C@@]21C
qualitative-label: 1 (yes)
--
molecular-string: CCCCCCCCCCCCc1ccccc1S(=O)(=O)O
qualitative-label: 1 (yes)
--
molecular-string: CC[C@H](C)[C@@H](C(=O)O)n1sc2ccccc2c1=O
qualitative-label: 1 (yes)
